# Test system: Mus musculus
# Assay procedure: Toxicity in Swiss albino mouse assessed as ataxia at 100 mg/kg, sc measured up to 20 mins
# Format: organism-based
# Design: dose 100 mg/kg, route subcutaneous
# Condition summary: in vivo
Property name: Activity

molecule="COc1ccc(CC2c3cc(OC)c(OC)cc3CCN2C)cc1OC (racemic) [LAUDANOSINE]" property_name=Activity assay_value=Toxic
molecule=CCN(CC)CC(=O)Nc1c(Cc2nccc3ccccc23)ccc(OC)c1OC property_name=Activity assay_value=Non-toxic
molecule=CCNCC(=O)Nc1c(Cc2nccc3ccccc23)ccc(OC)c1OC property_name=Activity assay_value=Non-toxic
molecule="COc1ccc(Cc2nccc3ccccc23)c(NC(=O)C(C)N)c1OC (centres undefined)" property_name=Activity assay_value=Non-toxic
molecule="CCN(CC)CC(=O)Nc1c(C)cccc1C [LIDOCAINE]" property_name=Activity assay_value=Toxic
molecule=CCN(CC)CC(=O)Nc1cc(OC)c(OC)cc1C.Cl property_name=Activity assay_value=Non-toxic
molecule=COc1ccc(Cc2nccc3ccccc23)c(NC(=O)CN)c1OC property_name=Activity assay_value=Non-toxic
molecule=CCN(CC)CC(=O)Nc1cc(OC)c(OC)cc1Cc1nccc2cc(OC)c(OC)cc12 property_name=Activity assay_value=Non-toxic

IN: Report Activity for CCN(CC)CC(=O)Nc1cc(OC)ccc1Cc1nccc2ccccc12 please.
OUT: Non-toxic
